biological target: T1, full length human GLP-1R with N-terminal FLAG tag and C-terminal GFP tag, on CHO cells (human, UniProt P43220 24-463); assay: flow cytometry, expressing vs parent CHO cells
T1 construct: whole, on cells; the cell line itself is tied to UniProt P43220; also called FLAG-GLP-1R-GFP; CHO-GLP-1R
Below, each entry is listed alongside its reported MFI Ratio.

BINDER	MFI Ratio
GLP1R-221-075 (antibody, V domains shown, IgG) VH: QVQLVESGGGVVQPGRSLRLSCAASGFTFSNYPMHWVRQAPGKGLEWVAVISYDETNKYYADSVKGRFTISRDNSKNTLYLQMNSLRAEDTAVYYCAKHMSMQEGAVTGEGQAAKEFIAWLVKGIVRADLVGDAFDVWGQGTLVTVSS VL: QSVLTQPPSVSAAPGQKVTISCSGSGSNIGNNDVSWYQQLPGTAPKLLIYDNDKRPAGIPDRFSGSKSGTSATLGITGLQTGDEADYYCGTWDTSLSNYVFGGGTKLTVL	1170
GLP1R-221-066 (antibody, V domains shown, IgG) VH: QVQLVESGGGVVQPGRSLRLSCAASGFTFNNYAMHWVRQAPGKGLEWVAVISYDRSNEYYADSVKGRFTISRDNSKNTLYLQMNSLRAEDTAVYYCAKHMSMQEGAVTGEGQAIKEFIAWLVKGRVRADLVGDAFDVWGQGTLVTVSS VL: QSVLTQPPSVSAAPGQKVTISCSGSSSNIGNNYLSWYQQLPGTAPKLLIYENNKRPSGIPDRFSGSKSGTSATLGITGLQTGDEADYYCGIWDRSLSAWVFGGGTKLTVL	928

Source: patent US20250340658A1
